Data provenance: patent US20150353909

# Target desc: purified recombinant linear UB dimers
Quantity measured: in vitro deubiquitylation activity

protein="His-tagged OTU2 (protein) MEGIIVRRVIPSDNSCLFNAIGYVMDKDKNKAPELRQVIAAAVASNKEKYNEAFLGKLNEEYCAWILNPDKWGGAIELSILADYYGREIAAYDIQTSRCDLYGQTRNYDERVMLIYDGLHYDALALSPFEGAEEDFDMTIYPVGKDRSIGSIEGLALNLVKDQQRKRSYTDTANFTLRCGVCQIGVIGQKEAVEHAQATGHVNFQEYK" quantity_measured="in vitro deubiquitylation activity" value_reported=-
protein="GST-OTU10 (protein) MVSHEENTSIVEWFLGPHPYTYPPYGIEMIHEDDEVAVAHHHHHHQSGEYYREYEDHRSSDVDNDEIIARTLQDDFLQLEIAESNDYSHQNQQQQHQQEGYTNNYSNNNNGYAWNDQSPAVDYSSEWIGNDNDQDGRSDDSVNVFSCSSPSDTDEYVYSWESDQCDADGEFGRRLNQMVPIPYIPKINGEIPPEEEAVSDHERLRNRLEMFDFTEVKVPGDGNCQFRALADQLYKTADRHKHVRRQIVKQLKSRPDSYQGYVPMDFSDYLRKMSRSGEWGDHVTLQAAADAYRVKIVVLTSFKDTCYIEILPTSQESKGVIFLSFWAEVHYNAIYLNRDTSETELQRKRKWWRFGN" quantity_measured="in vitro deubiquitylation activity" value_reported=-
protein="His-tagged OTU7a (protein) MAKTKQQKSKPKKQPHQKQGKDCDLSQFRAQLDALGLKIIQVTADGNCFFRAIADQLEGNEDEHNKYRNMIVLYIVKNREMFEPFIEDDVPFEDYCKTMDDDGTWAGNMELQAASLVTRSNICIHRNMSPRWYIRNFEDTRTRMIHLSYHDGEHYNSVRSKEDACGGPARPVVIEADAKVSAASKQAKATESKSKNKADKCHVNAGAIKVVMSGSCCDNTEKAEQVLLQVNGDVDAAIEFLIADQGMESLTENDTETASASDTINPKHASDSPMENTEQAREELIEEESASGNNSETVQAKCTTQTDDKKIPRNKTCPCGSKKKYKSCCGTATGRSSVKLLVSQTMESKKGRKNLRRGTSNEVEANAPDVGALCI" quantity_measured="in vitro deubiquitylation activity" value_reported=-
